- TESTED ON: T1, RSV N-RNA complex (full-length N protein in ring-shaped complexes with bacterial RNA) (human respiratory syncytial virus, UniProt P03418 1-391)
- T1 construct: human RSV nucleoprotein N, full length; concentrations are of N protomer; also called N-RNA rings; source: in lysate for the co-purification; purified (glutathione-Sepharose, thrombin, Superdex 200) as N-RNA complex; copies: 10-11
- T1 sequence (looked up): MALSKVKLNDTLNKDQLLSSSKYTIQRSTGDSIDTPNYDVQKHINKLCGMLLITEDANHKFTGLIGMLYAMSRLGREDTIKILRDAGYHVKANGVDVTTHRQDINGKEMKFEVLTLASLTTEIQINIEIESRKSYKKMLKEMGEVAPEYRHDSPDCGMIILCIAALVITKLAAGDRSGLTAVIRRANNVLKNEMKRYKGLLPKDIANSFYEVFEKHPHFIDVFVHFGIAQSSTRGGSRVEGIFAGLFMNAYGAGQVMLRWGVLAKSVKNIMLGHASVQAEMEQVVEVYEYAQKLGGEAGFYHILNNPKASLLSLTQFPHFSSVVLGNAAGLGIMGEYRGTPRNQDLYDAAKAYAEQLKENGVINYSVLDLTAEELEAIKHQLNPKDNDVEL
- ASSAY OVERVIEW: fluorescence polarisation; competition: unlabeled P_(10EE) varied against 200 nM BCN_(10EE) on 1 µM N-RNA; Tris pH 8 buffer; Hill equation; Ki from the IC50-to-Ki server
- SETUP CONDITIONS: both partners purified
RECORDED METRIC: pIC50
# pIC50 is unitless: minus log10 of the molar concentration; print number only

Lookup: Entry EDNDLELEDF (unlabeled equivalent of BCN_(10EE), which was made from P_(10EE) on resin; C-terminal 10 residues of RSV phosphoprotein P; source: synthetic peptide) [P_(10EE) (unlabeled RSV P 10-mer, Ser232Glu/Ser237Glu)] : reported pIC50 = ?
Found: 4.68
